Provenance of the data: ChEMBL document CHEMBL2218924

# Subject Of Test: Protein kinase C theta type (Homo sapiens)
# Assay Context: at 1 µM
Outcome Measure: residual activity (%)
One number for each entry, in %.

// known answers, use as guide
O=C1Nc2ccc(Br)cc2/C1=C\c1cc2c([nH]1)CCCC2 :: 100
Cc1nc(-c2ccccc2)c(-c2ccncc2)o1 :: 107
Cc1cc(Nc2nc(-c3ccccc3)nc3ccccc23)n[nH]1 :: 64
COc1cc2ncnc(Nc3ccc(Oc4ccccc4)cc3)c2cc1OC :: 108
Nc1nc(Nc2ccc(S(N)(=O)=O)cc2)nn1C(=S)Nc1c(F)cccc1F :: 10

# per-item lookup of residual activity; items listed below
1. O=[N+]([O-])c1ccc(-c2nc(-c3ccc(F)cc3)c(-c3ccncc3)[nH]2)cc1
2. CO[C@@H]1[C@H](N(C)C(=O)c2ccccc2)C[C@H]2O[C@]1(C)n1c3ccccc3c3c4c(c5c6ccccc6n2c5c31)C(=O)NC4
3. COc1ccc(S(=O)(=O)N(CCO)c2ccccc2CN(C)C/C=C/c2ccc(Cl)cc2)cc1
4. CCC(=O)Nc1ccc2ncnc(Nc3cccc(Br)c3)c2c1
5. CCOc1cc2ncnc(Nc3cccc(Br)c3)c2cc1OCC

[91, 15, 89, 96, 116]

====

# Subject Of Test: Serine/threonine-protein kinase Chk2 (Homo sapiens) (UniProt O96017)
# Sequence (O96017 whole entry): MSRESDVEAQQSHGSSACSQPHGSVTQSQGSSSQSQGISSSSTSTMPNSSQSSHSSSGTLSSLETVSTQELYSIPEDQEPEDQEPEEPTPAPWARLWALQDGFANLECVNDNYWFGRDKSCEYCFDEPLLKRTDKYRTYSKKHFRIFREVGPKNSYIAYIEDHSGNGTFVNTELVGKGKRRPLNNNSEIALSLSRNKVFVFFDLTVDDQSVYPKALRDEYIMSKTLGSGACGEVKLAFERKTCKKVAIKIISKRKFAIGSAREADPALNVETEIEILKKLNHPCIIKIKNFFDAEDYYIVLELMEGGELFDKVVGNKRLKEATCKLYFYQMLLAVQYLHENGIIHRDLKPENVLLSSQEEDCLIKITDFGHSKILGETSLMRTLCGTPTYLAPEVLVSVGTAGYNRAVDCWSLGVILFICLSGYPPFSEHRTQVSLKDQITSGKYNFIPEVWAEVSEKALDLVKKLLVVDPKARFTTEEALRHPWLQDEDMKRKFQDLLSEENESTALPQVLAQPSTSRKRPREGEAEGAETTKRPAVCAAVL
# Assay Context: at 10 µM
Outcome Measure: residual activity (%)
Numbers only, in %.

// known answers, use as guide
Oc1c2ccccc2c2c3c(cccc13)N=N2 :: 2
Cc1cc2ncc(-c3ccccc3)nc2cc1C :: 89
Oc1n[nH]c2nnc(-c3c(-c4ccccc4)nn4ccccc34)cc12 :: 11
COc1ccc(C(=O)Nc2sc3c(c2C(N)=O)CCCC3)cc1OC :: 98
N#C/C(=C(\N)Sc1ccc(N)cc1)c1ccccc1C(F)(F)F :: 81
COc1ccc(S(=O)(=O)N(CCO)c2ccccc2CN(C)C/C=C/c2ccc(Cl)cc2)cc1 :: 73

# per-item lookup of residual activity; items listed below
1. c1ccc(-c2n[nH]c3c2oc2ccccc23)cc1
2. CO[C@@H]1[C@H](N(C)C(=O)c2ccccc2)C[C@H]2O[C@]1(C)n1c3ccccc3c3c4c(c5c6ccccc6n2c5c31)C(=O)NC4

[57, 54]

# per-item lookup of residual activity; items listed below
1. CO[C@H]1[C@@H](OC)C[C@H](C)[C@@H](OC)C2=CC(=O)C=C(NC(=O)/C(C)=C/C=C/[C@H](OC)[C@@H](OC(N)=O)/C(C)=C/[C@@H]1C)C2=O
2. Nc1ccc2ncnc(NCCc3ccc(Oc4ccccc4)cc3)c2c1

1. 89
2. 17

====

Exercise: for every item that follows, state its recorded residual activity.
# Subject Of Test: Casein kinase II (Homo sapiens) (UniProt P67870+P68400+P19784)
# Sequence (P19784 whole entry, looked up): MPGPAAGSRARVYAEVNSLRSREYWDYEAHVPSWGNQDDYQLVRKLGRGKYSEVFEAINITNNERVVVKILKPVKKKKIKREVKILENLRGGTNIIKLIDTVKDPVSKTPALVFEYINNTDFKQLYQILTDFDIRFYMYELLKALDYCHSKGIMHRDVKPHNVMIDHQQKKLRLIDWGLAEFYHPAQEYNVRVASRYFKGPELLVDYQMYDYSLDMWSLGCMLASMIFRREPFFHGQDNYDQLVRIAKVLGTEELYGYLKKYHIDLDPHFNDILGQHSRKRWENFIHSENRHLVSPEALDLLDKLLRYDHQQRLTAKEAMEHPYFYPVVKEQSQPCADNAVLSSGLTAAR
# Sequence (P67870 whole entry, looked up): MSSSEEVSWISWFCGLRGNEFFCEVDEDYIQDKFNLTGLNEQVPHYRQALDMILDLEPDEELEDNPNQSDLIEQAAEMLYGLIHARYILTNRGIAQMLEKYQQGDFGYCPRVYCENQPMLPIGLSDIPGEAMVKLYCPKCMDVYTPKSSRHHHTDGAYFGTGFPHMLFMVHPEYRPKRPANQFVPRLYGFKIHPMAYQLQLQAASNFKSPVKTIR
# Sequence (P68400 whole entry, looked up): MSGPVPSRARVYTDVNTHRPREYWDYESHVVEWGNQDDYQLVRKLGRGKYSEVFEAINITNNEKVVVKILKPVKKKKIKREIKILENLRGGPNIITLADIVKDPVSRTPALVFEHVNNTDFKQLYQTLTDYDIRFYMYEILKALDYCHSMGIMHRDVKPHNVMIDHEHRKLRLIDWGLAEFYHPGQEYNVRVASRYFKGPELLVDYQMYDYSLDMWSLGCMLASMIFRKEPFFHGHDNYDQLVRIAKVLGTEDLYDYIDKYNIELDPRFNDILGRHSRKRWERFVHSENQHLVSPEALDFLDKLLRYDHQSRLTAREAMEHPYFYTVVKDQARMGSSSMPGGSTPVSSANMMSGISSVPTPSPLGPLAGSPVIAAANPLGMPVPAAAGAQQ
# Assay Context: at 10 µM
# Description: Millipore: Percentage of residual kinase activity of CSNK2A1 at 10uM relative to control. Control inhibitor: Jnk Inhibitor II at 100.0uM. Buffer: 20 mM HEPES pH 7.6, 0.15 M NaCl, 0.1 mM EDTA, 5 mM DTT, 0.1% Triton X-100

// known answers, use as guide
CN(C)CCCn1cc(C2=C(c3c[nH]c4ccccc34)C(=O)NC2=O)c2ccccc21 :: 101%
N#CC(C#N)=C(N)/C(C#N)=C/c1ccc(O)cc1 :: 85%
Ic1cccc(CSc2nnc(-c3ccncc3)o2)c1 :: 87%
Oc1n[nH]c2nnc(-c3c(-c4ccccc4)nn4ccccc34)cc12 :: 82%
COc1cc2ncnc(Nc3ccc(O)c(Br)c3)c2cc1OC :: 44%
CCOc1cc2ncnc(Nc3cccc(Br)c3)c2cc1OCC :: 104%
CCN(CC)CCCCN1c2ccccc2Oc2ccc(Cl)cc21 :: 103%
Cc1cccc(-c2[nH]c(C(C)(C)C)nc2-c2ccc3c(c2)OCO3)n1 :: 132%
COc1ccc(OC)c2c(=S)c3ccccc3[nH]c12 :: 79%
O=C1NC(=O)/C(=C/c2ccc3c(c2)OC(F)(F)O3)S1 :: 2%

# per-item lookup of residual activity; items listed below
1. O=C1c2ccccc2-[n+]2ccc3c([nH]c4ccccc43)c21
2. O=C1NC(=O)c2c1c1c3ccccc3[nH]c1c1[nH]c3cc(Br)ccc3c21
3. Oc1c2ccccc2c2c3c(cccc13)N=N2
4. O=c1c2ccccc2[nH]c(=S)n1CCN1CCC(=C(c2ccc(F)cc2)c2ccc(F)cc2)CC1
5. O=[N+]([O-])c1ccc(-c2nc(-c3ccc(F)cc3)c(-c3ccncc3)[nH]2)cc1
6. CC(C)n1cnc2c(NCc3ccccc3)nc(NCCCO)nc21
7. CO[C@H]1C[C@@H]2CC[C@@H](C)[C@@](O)(O2)C(=O)C(=O)N2CCCC[C@H]2C(=O)O[C@H]([C@H](C)C[C@@H]2CC[C@@H](O)[C@H](OC)C2)CC(=O)[C@H](C)/C=C(\C)[C@@H](O)[C@@H](OC)C(=O)[C@H](C)C[C@H](C)/C=C/C=C/C=C/1C
8. C[C@@H](N)[C@H]1CC[C@H](C(=O)Nc2ccncc2)CC1

1. 71%
2. 94%
3. 19%
4. 116%
5. 108%
6. 94%
7. 98%
8. 87%

# lookup: residual activity of `Cc1nc2cc3nc(-c4cccs4)cnc3cc2n1C`
104%
